system: Ribosomal protein S6 kinase (Homo sapiens) (UniProt P51812+Q9UBS0+O75676+Q15349+O75582+P23443+Q9UK32+Q15418)
test protocol: Inhibition of RPS6 kinase in human HeLa cells assessed as p-RPS6 Ser235/236 phosphorylation level at 5 uM incubated for 6 hrs by SDS-PAGE based chemiluminescence assay
Type: cell-based
Design: scale not given: the % may be the effect or the level left
measurement kind: Activity (%)

(1) Cc1cc(C)c(/C=C2\C(=O)Nc3ccc(-c4csc(C5CCCNC5)n4)cc32)[nH]1 (configuration not stated)
(2) COc1ncc(-c2cccc3c2/C(=C/c2[nH]c(C)cc2C)C(=O)N3)cn1
# compare Activity for 1 vs 2 ; return the one with the smaller value Answer format: the label of the selected item. 1

* * *

Tested on: A549
test protocol: Cytotoxic activity against human A549 bulk cells incubated for 72 hrs by Cell-titer-Glo luminescence assay
Format: functional, cell-based
details: A549, 72 h
Reported IC50 is given for each of the following molecules.
Write down the numeric answer in µM and omit the unit.

> print(dat)
                                 cpd.smiles  system  measurement.kind  data.value
1  COC(=O)c1c(C)[nH]c(/C=C2\C(=O)Nc3ccc(-c4csc(C5CCNCC5)n4)cc32)c1C    A549              IC50         0.7
2  CCN(CC)CCN(C)C(=O)c1c(C)[nH]c(/C=C2\C(=O)Nc3ccc(-c4csc(-c5ccccc5)n4)cc32)c1C    A549              IC50        9.94
3  O=C1Nc2ccc(-c3csc(-c4ccccc4)n3)cc2/C1=C/c1ncc[nH]1    A549              IC50        17.2
4  Cc1cc(C)c(/C=C2\C(=O)Nc3ccc(-c4cc(-c5ccccc5)ccn4)cc32)[nH]1    A549              IC50        13.8
5  CCN(CC)CCNC(=O)c1c(C)[nH]c(/C=C2\C(=O)Nc3ccc(-c4ccc5c(c4)CC(=O)N5)cc32)c1C    A549              IC50        19.7
6  CCN(CC)CCNC(=O)c1c(C)[nH]c(/C=C2\C(=O)Nc3cc(-c4ccc5ccccc5n4)ccc32)c1C    A549              IC50        16.4
7  CCN(CC)CCNC(=O)CCc1c(C)[nH]c(/C=C2\C(=O)Nc3ccc(-c4csc(-c5ccccc5)n4)cc32)c1C    A549              IC50        1.11
8  CCN(CC)CCNC(=O)c1c(C)[nH]c(/C=C2\C(=O)Nc3ccc(-c4nnc(-c5ccccc5)s4)cc32)c1C    A549              IC50        48.9

For A549, give the measured IC50 of the entry Cc1ccc(-c2nc(-c3ccc4c(c3)/C(=C/c3[nH]c(C)c(C(=O)N5CCN(C)CC5)c3C)C(=O)N4)cs2)cc1 8.55

Report IC50 under test system A549 for Cc1[nH]c(/C=C2\C(=O)Nc3ccc(-c4csc(-c5ccccc5)n4)cc32)c(C)c1S(=O)(=O)N1CCCC1 . 2.86

Report measured IC50 on A549; entry: CCN(CC)CCN1CCCc2[nH]c(/C=C3\C(=O)Nc4ccc(-c5csc(-c6ccccc6)n5)cc43)c(C)c2C1=O 18
